# Method Description: Blood-brain barrier permeability test, oral, SD rats
# Type: in vivo
# Measurement Conditions: rat, cerebrospinal fluid, oral 10 mg/kg single dose, time point 1 h, read-out: Drug concentration in cerebrospinal fluid
Measured Endpoint: concentration at 1 h
The reply should consist of the numeric value with the unit placed after it.

Some entries whose results are on file:
Nc1nccn2c(C3CCC(CO)OC3)nc(-c3ccc(C(F)(F)c4ccccc4)cc3)c12 (single isomer, unassigned) [Example 111-P1]: 66.2 ng/mL
Nc1nccn2c(C34CCC(CO)(CC3)OC4)nc(-c3ccc(C(F)(F)c4ccccc4Cl)cc3)c12: 292 ng/mL
Cc1cc(Nc2ncnc3ccc(NC4=NC(C)(C)CO4)cc23)ccc1Oc1ccn2ncnc2c1 [Tucatinib, reference compound]: 19.2 ng/mL
Nc1nccn2c(C34CCC(CO)(CC3)OC4)nc(-c3ccc(C(F)(F)c4ccccc4F)cc3)c12: 59.7 ng/mL
Nc1nccn2c(C34CCC(CO)(CC3)OC4)nc(-c3ccc(C(F)(F)c4cccc(F)c4Cl)cc3)c12: 27.4 ng/mL

Q: Endpoint output: concentration at 1 h of Nc1nccn2c(C34CCC(CO)(CC3)OC4)nc(-c3ccc(C(F)(F)c4ccccc4)cc3)c12 . Value?
Ans: 34.1 ng/mL

Q: Could you share which concentration at 1 h value was measured for Nc1nccn2c(C34CCC(CO)(CC3)OC4)nc(-c3ccc(C(F)(F)c4cccc(Cl)c4F)cc3)c12 ?
Ans: 187 ng/mL

* * *

# Method Description: Blood-brain barrier permeability test, oral, SD rats
# Type: in vivo
# Measurement Conditions: rat, brain, oral 10 mg/kg single dose, time point 1 h, read-out: Drug concentration in brain tissue
Measured Endpoint: concentration at 1 h (ng/g)
Express it in ng/g; write the number only.

Below: 4 compounds and their reported concentration at 1 h.
Cc1cc(Nc2ncnc3ccc(NC4=NC(C)(C)CO4)cc23)ccc1Oc1ccn2ncnc2c1 [Tucatinib, reference compound]: 26.5
Nc1nccn2c(C34CCC(CO)(CC3)OC4)nc(-c3ccc(C(F)(F)c4cccc(Cl)c4F)cc3)c12 [Example 152]: 288
CC#CC(=O)N1CC[C@@H](n2c(=O)n(-c3ccc(Oc4ccccc4)cc3)c3c(N)ncnc32)C1 [Tirabrutinib, reference compound]: 84
Nc1nccn2c(C3CCC(CO)OC3)nc(-c3ccc(C(F)(F)c4ccccc4)cc3)c12 (single isomer, unassigned) [Example 111-P1]: 1250

Q: // concentration at 1 h lookup, key: Nc1nccn2c(C34CCC(CO)(CC3)OC4)nc(-c3ccc(C(F)(F)c4cccc(F)c4Cl)cc3)c12 [Example 146]
Ans: 296

Q: Entry Nc1nccn2c(C34CCC(CO)(CC3)OC4)nc(-c3ccc(C(F)(F)c4ccccc4F)cc3)c12 [Example 145] : reported concentration at 1 h = ?
Ans: 643

Q: Requested field: concentration at 1 h. Item: Nc1nccn2c(C34CCC(CO)(CC3)OC4)nc(-c3ccc(C(F)(F)c4ccccc4Cl)cc3)c12 [Example 155]
Ans: 1520

Q: Could you share which concentration at 1 h value was measured for Nc1nccn2c(C34CCC(CO)(CC3)OC4)nc(-c3ccc(C(F)(F)c4ccccc4)cc3)c12 [Example 125] ?
Ans: 1340

* * *

# Method Description: Liver microsome metabolic stability test (rat)
# Assay type: in vitro ADME
# Measurement Conditions: liver microsomes, read-out: CLint (μL/min/mg) Rat
Measured microsomal CLint, listed per entry for reference.
Report only the number, with the unit µL/min/mg understood.

Guide cases for microsomal CLint, answers given:
COc1cccc(Oc2ccc(-c3nc(C4CCC(CO)OC4)n4ccnc(N)c34)cc2)c1F (stereo not shown): 122
COc1cccc(Oc2ccc(-c3nc(C4CCC(CO)OC4)n4ccnc(N)c34)cc2)c1C#N (single isomer, unassigned) [Example 89-P1]: 15.7
COc1cccc(Oc2ccc(-c3nc(C4CCC(CO)OC4)n4ccnc(N)c34)cc2)c1 (stereo not shown): 29.8

Proceeding to the next molecule to report its microsomal CLint.
Q: Fill in: microsomal CLint of Cc1cccc(Oc2ccc(-c3nc(C4CCC(CO)OC4)n4ccnc(N)c34)cc2)c1F (stereo not shown) is ___
Ans: 255

* * *

# Method Description: Pharmacokinetic test, oral, SD rats
# Type: in vivo
# Measurement Conditions: rat, plasma, oral 10 mg/kg, read-out: T½ (converted)
Measured Endpoint: half-life (h)
Just the number in h, nothing appended.

Q: Any idea what half-life was measured for Nc1nccn2c(C34CCC(CO)(CC3)OC4)nc(-c3ccc(C(F)(F)c4ccccc4F)cc3)c12 ?
Ans: 2.78

* * *

As shown below, each of these compounds has a reported % Remaining (60 min) Human value.
# Method Description: Liver microsome metabolic stability test (human)
# Format: in vitro ADME
# Measurement Conditions: 60 min
Provide only the numeric value, understood in %.

Reference set (3 entries):
Nc1nccn2c(C3CC[C@@H](CO)OC3)nc(-c3ccc(C(=O)Nc4ccccn4)cc3F)c12 (stereo partly drawn): 99.9
Nc1nccn2c(C34CCC(CO)(CC3)OC4)nc(-c3ccc(C(F)(F)c4ccccc4F)cc3)c12: 46.2
Nc1nccn2c([C@@H]3CC[C@H](CO)OC3)nc(-c3ccc(C(=O)Nc4ccccn4)cc3)c12 (single isomer, unassigned) [Example 2-A-P1]: 122.5

Q: What does the record list as % Remaining (60 min) Human for COc1cccc(Oc2ccc(-c3nc(C4CCC(CO)OC4)n4c(Cl)cnc(N)c34)cc2)c1F (stereo not drawn) ?
Ans: 2.6

Q: Dear colleague, I am looking for the recorded % Remaining (60 min) Human of the following compound: Nc1nccn2c(C3CCC(CO)OC3)nc(-c3ccc(Oc4ccccc4)cc3)c12 (stereo not drawn)
Ans: 31.8

Q: What measured % Remaining (60 min) Human goes with Nc1nccn2c(C3CCC(CO)OC3)nc(-c3ccc(Oc4cccc(Cl)c4F)cc3)c12 (stereo not drawn) ?
Ans: 24.5

* * *

# Tested on: DOHH2 cell proliferation
# Method Description: In vitro cell proliferation inhibitory activity test (CTG), DOHH2
# Type: cell-based
# Measurement Conditions: Homo sapiens, DOHH-2
Kindly apply the following: class 1 if IC50 is less than 200 nM, class 0 in every other case.

Use the examples below as a reference point.
Nc1nccn2c(C34CCC(CO)(CC3)OC4)nc(-c3ccc(C(=O)Nc4cc(C(F)(F)F)ccn4)cc3)c12 [Example 118]: class 0
CC#CC(=O)N1CC[C@@H](n2c(=O)n(-c3ccc(Oc4ccccc4)cc3)c3c(N)ncnc32)C1 [Tirabrutinib, reference compound]: class 0
O=C(c1ccc(Oc2ccccc2)cc1Cl)c1c[nH]c2ncnc(N[C@@H]3CC[C@@H](CO)OC3)c12 [ARQ-531, reference compound]: class 1
Nc1nccn2c(C34CCC(CO)(CC3)OC4)nc(-c3ccc(C(F)(F)c4ccccc4)cc3)c12 [Example 125]: class 1
Nc1nccn2c(C3CCC(CO)OC3)nc(-c3ccc(C(F)(F)c4ccccc4)cc3)c12 (single isomer, unassigned) [Example 111-P1]: class 1

Now turn to the next molecule.
Q: Take the molecule COc1ccc(F)cc1C(=O)NCc1ccc(-c2nn([C@@H](C)C(F)(F)F)c(N)c2C(N)=O)cc1 [LOXO-305] and say whether its IC50 is less than 200 nM.
Ans: class 0

* * *

# Method Description: Blood-brain barrier permeability test, oral, SD rats
# Type: in vivo
# Measurement Conditions: rat, cerebrospinal fluid/plasma, oral 10 mg/kg single dose, time point 2 h, read-out: Cerebrospinal fluid/plasma
Given measured Kp at 2 h, output met if it is greater than or equal to 0.03 and not met if not.

Nc1nccn2c(C3CCC(CO)OC3)nc(-c3ccc(C(F)(F)c4ccccc4)cc3)c12 (single isomer, unassigned) [Example 111-P1]: met
Nc1nccn2c(C34CCC(CO)(CC3)OC4)nc(-c3ccc(C(F)(F)c4ccccc4Cl)cc3)c12: met
Cc1cc(Nc2ncnc3ccc(NC4=NC(C)(C)CO4)cc23)ccc1Oc1ccn2ncnc2c1 [Tucatinib, reference compound]: not met
Nc1nccn2c(C34CCC(CO)(CC3)OC4)nc(-c3ccc(C(F)(F)c4ccccc4)cc3)c12: not met

Consider the record given below.
Q: Confirm if Kp at 2 h reported for the molecule Nc1nccn2c(C34CCC(CO)(CC3)OC4)nc(-c3ccc(C(F)(F)c4cccc(Cl)c4F)cc3)c12 is 0.03 or above.
Ans: met

* * *

# Method Description: Liver microsome metabolic stability test (human)
# Type: in vitro ADME
# Measurement Conditions: liver microsomes, read-out: CLint (μL/min/mg) Human
Some compounds, each annotated with its measured microsomal CLint.

Nc1nccn2c(C3CCC(CO)OC3)nc(-c3ccc(Cc4ccccc4)cc3)c12 (stereo not shown): 13.1 µL/min/mg
Nc1nccn2c(C34CCC(CO)(CC3)OC4)nc(-c3ccc(C(=O)Nc4cc(C(F)(F)F)ccn4)cc3)c12: < 9.6 µL/min/mg
COc1cccc(Oc2ccc(-c3nc(C4CCC(CO)OC4)n4ccnc(N)c34)cc2)c1C#N (single isomer, unassigned) [Example 89-P1]: < 9.6 µL/min/mg
Nc1nccn2c(C34CCC(CO)(CC3)OC4)nc(-c3ccc(C(F)(F)c4cccc(Cl)c4F)cc3)c12: 45.9 µL/min/mg
COc1cccc(Oc2ccc(-c3nc(C4CCC(CO)OC4)n4ccnc(N)c34)cc2)c1 (stereo not shown): < 9.6 µL/min/mg

Q: Any idea what its microsomal CLint is? The compound is Cc1ccnc(NC(=O)c2ccc(-c3nc(C4CCC(CO)OC4)n4ccnc(N)c34)cc2)c1 (stereo not shown)
Ans: 13.2 µL/min/mg

Q: Data request, read-out microsomal CLint, for Cc1cccc(Oc2ccc(-c3nc(C4CCC(CO)OC4)n4ccnc(N)c34)cc2)c1F (stereo not shown)
Ans: 74.9 µL/min/mg

Data provenance: patent US20230257383A1
